Lab note: log10 of IC50 readings collected with Acetylcholinesterase (Homo sapiens, UniProt P22303) for the following compounds.
Sequence (P22303 whole entry): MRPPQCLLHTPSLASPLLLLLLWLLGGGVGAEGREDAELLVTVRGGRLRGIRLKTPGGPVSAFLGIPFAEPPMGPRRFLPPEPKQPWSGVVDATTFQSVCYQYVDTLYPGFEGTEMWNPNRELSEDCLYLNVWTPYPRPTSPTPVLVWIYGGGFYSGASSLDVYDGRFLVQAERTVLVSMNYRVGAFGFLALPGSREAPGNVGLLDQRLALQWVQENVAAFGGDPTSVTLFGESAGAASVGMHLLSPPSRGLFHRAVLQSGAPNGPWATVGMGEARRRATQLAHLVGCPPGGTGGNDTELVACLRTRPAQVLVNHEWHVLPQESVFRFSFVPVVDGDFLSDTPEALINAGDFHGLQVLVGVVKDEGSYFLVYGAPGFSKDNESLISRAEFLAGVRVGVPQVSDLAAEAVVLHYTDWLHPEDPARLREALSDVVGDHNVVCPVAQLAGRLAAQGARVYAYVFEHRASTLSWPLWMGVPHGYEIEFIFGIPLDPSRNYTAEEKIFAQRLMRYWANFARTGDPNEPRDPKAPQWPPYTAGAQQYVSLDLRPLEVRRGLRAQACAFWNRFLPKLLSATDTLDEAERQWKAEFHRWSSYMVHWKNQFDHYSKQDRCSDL
# log10 transformed; quantity=IC50; unit=nM

Recorded results for 5 compounds are shown here.
- COc1cc2c(cc1OC)/C(=N\NC(=O)C(NC(=O)C(C)c1ccc(CC(C)C)cc1)C(C)C)C(CC1CCN(Cc3ccccc3)CC1)C2 (centres undefined): 2.60
- COc1cc2c(cc1OC)/C(=N\NC(=O)c1ccccc1OC(C)=O)C(CC1CCN(Cc3ccccc3)CC1)C2 (centres undefined): 1.66
- COc1cc2c(cc1OC)/C(=N\NC(=O)C(C)c1ccc(CC(C)C)cc1)C(CC1CCN(Cc3ccccc3)CC1)C2 (centres undefined): 1.18
- COc1ccc2cc([C@H](C)C(=O)N/N=C3\c4cc(OC)c(OC)cc4CC3CC3CCN(Cc4ccccc4)CC3)ccc2c1 (some centres undefined): 2.18
- COc1cc2c(cc1OC)/C(=N\N)C(CC1CCN(Cc3ccccc3)CC1)C2 (centres undefined): 2.28

q: Missing value: log10 of IC50, Acetylcholinesterase (Homo sapiens, UniProt P22303), entry COc1cc2c(cc1OC)/C(=N\NC(=O)C(CC(C)C)NC(=O)C(C)c1ccc(CC(C)C)cc1)C(CC1CCN(Cc3ccccc3)CC1)C2 (centres undefined) . Fill in?
a: 2.54

q: Missing value: log10 of IC50, Acetylcholinesterase (Homo sapiens, UniProt P22303), entry COc1cc2c(cc1OC)/C(=N\NC(=O)CCNC(=O)C(C)c1ccc(CC(C)C)cc1)C(CC1CCN(Cc3ccccc3)CC1)C2 (centres undefined) . Fill in?
a: 3.69

q: Missing value: log10 of IC50, Acetylcholinesterase (Homo sapiens, UniProt P22303), entry COc1ccc2c(c1)c(CC(=O)N/N=C1\c3cc(OC)c(OC)cc3CC1CC1CCN(Cc3ccccc3)CC1)c(C)n2C(=O)c1ccc(Cl)cc1 (centres undefined) . Fill in?
a: 2.71

q: Missing value: log10 of IC50, Acetylcholinesterase (Homo sapiens, UniProt P22303), entry COc1cc2c(cc1OC)/C(=N\NC(=O)CNC(=O)C(C)c1ccc(CC(C)C)cc1)C(CC1CCN(Cc3ccccc3)CC1)C2 (centres undefined) . Fill in?
a: 3.08

###

Biological target: Cholinesterase (Homo sapiens)
Sequence (P06276 whole entry): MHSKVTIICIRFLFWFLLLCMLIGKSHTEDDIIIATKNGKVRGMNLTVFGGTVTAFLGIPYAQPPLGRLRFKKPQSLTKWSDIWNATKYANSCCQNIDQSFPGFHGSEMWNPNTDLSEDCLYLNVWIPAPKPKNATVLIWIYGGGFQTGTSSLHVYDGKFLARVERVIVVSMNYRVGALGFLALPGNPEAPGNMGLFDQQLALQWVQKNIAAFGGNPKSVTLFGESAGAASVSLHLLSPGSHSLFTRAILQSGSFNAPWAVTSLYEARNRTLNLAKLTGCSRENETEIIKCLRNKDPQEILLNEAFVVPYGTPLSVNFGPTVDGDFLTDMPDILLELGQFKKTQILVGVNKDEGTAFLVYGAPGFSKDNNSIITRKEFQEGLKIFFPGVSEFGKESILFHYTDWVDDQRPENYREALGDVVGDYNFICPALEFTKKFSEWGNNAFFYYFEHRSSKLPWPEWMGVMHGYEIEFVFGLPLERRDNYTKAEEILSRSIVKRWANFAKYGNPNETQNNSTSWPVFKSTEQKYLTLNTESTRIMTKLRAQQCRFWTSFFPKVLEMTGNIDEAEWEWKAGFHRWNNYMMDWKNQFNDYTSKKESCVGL
# Lookup of reported log10 of IC50 keyed by entry
# log10 transformed; quantity=IC50; unit=nM

Recorded results for 5 compounds are shown here.
• COc1cc2c(cc1OC)/C(=N\N)C(CC1CCN(Cc3ccccc3)CC1)C2 (centres undefined) = 3.40
• COc1cc2c(cc1OC)/C(=N\NC(=O)c1ccccc1OC(C)=O)C(CC1CCN(Cc3ccccc3)CC1)C2 (centres undefined) = 2.90
• COc1ccc2c(c1)c(CC(=O)N/N=C1\c3cc(OC)c(OC)cc3CC1CC1CCN(Cc3ccccc3)CC1)c(C)n2C(=O)c1ccc(Cl)cc1 (centres undefined) = 3.93
• COc1cc2c(cc1OC)/C(=N\NC(=O)C(CC(C)C)NC(=O)C(C)c1ccc(CC(C)C)cc1)C(CC1CCN(Cc3ccccc3)CC1)C2 (centres undefined) = 4.31
• COc1cc2c(cc1OC)/C(=N\NC(=O)C(NC(=O)C(C)c1ccc(CC(C)C)cc1)C(C)C)C(CC1CCN(Cc3ccccc3)CC1)C2 (centres undefined) = 3.51

q: log10 of IC50 lookup needed for COc1cc2c(cc1OC)/C(=N\NC(=O)CNC(=O)C(C)c1ccc(CC(C)C)cc1)C(CC1CCN(Cc3ccccc3)CC1)C2 (centres undefined) , thanks.
a: 3.21

q: log10 of IC50 lookup needed for COc1cc2c(cc1OC)/C(=N\NC(=O)C(C)c1ccc(CC(C)C)cc1)C(CC1CCN(Cc3ccccc3)CC1)C2 (centres undefined) , thanks.
a: 2.90

q: log10 of IC50 lookup needed for COc1ccc2cc([C@H](C)C(=O)N/N=C3\c4cc(OC)c(OC)cc4CC3CC3CCN(Cc4ccccc4)CC3)ccc2c1 (some centres undefined) , thanks.
a: 2.94

q: log10 of IC50 lookup needed for COc1cc2c(cc1OC)/C(=N\NC(=O)CCNC(=O)C(C)c1ccc(CC(C)C)cc1)C(CC1CCN(Cc3ccccc3)CC1)C2 (centres undefined) , thanks.
a: 4.06

Recorded values, source ChEMBL document CHEMBL5223116.
